The reported measurements were obtained from PubChem BioAssay AID1347426.

Test: Novel Modifiers of Survival Motor Neuron (SMN) Protein: Gene Identification via Genome-wide siRNA Screen;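 also: luminescence tracks full-length SMN protein made from the SMN2 reporter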
Conditions: HEK293T SMN2-luciferase reporter, siRNA knockdown, 72 h; actives lie on both sides
The campaign covered roughly 31,000 sequences. About 1,400 (4.5%) were called active. This is one part of a sample in which actives are shown more often than they occur.
Value Type: median seed-adjusted z-score

Solved cases below.
>>> df
                 macromolecule_sequence      readout_value
0  GAGCCUCUAUUAAUGGACATT against RASSF6  -0.592 (inactive)
1   CAGCGAUGCUACGACAAUATT against PHF17      1.01 (active)
2  CCUUCUACAACACCAAGAATT against AGPAT2    0.38 (inactive)
3   GGUUGGUGUUCGAUGAGUATT against ANXA6     -1.01 (active)
4    GCAUUUGUUUGGGUUGCGATT against MTF2       0 (inactive)

Retrieve median seed-adjusted z-score measured for CCAGACAGGAGGAACCAUATT against HDAC11 and print it.
0.259 (inactive)

Retrieve median seed-adjusted z-score measured for GGAGCUCUGUUGUGGAGAATT against FCGRT and print it.
-0.00396 (inactive)

Retrieve median seed-adjusted z-score measured for AGUUAGGCACAGUCAGACATT against POLD4 and print it.
0.225 (inactive)
